pIC50: −log10 of the molar value.
// EN PA (Influenza A virus, UniProt P15659) pIC50 records

**Query** // query pIC50 value for entry Cc1cn(C2(Cn3cc(O)c(=O)c(C(=O)NCc4ccc(F)c(Cl)c4)n3)CCCC2)c2ncccc12 [Compound 757]
**Result** > 7.00

**Query** Give its pIC50 value. Item: CNC(=O)c1nn(CC2(c3c[nH]c4ccccc34)CCCC2)cc(O)c1=O [Compound 831]
**Result** 6.00 to 7.00

**Query** So what does the record say about pIC50 for CNC(=O)c1nn(CC2(n3ccc4ccccc43)CCCC2)cc(O)c1=O [Compound 850] ?
**Result** > 7.00

**Query** Value lookup for pIC50; key = Cc1cn(C2(Cn3cc(O)c(=O)c(C(=O)NC(C)(C)CN)n3)CCCC2)c2ccccc12 [Compound 868]
**Result** > 7.00

**Query** Name the reported pIC50 value associated with the compound O=C(NCC1CC1)c1nn(CC2(c3cccc(C(F)(F)F)c3)CCCC2)cc(O)c1=O [Compound 510]
**Result** 6.00 to 7.00

**Query** // pIC50 lookup, key: CCc1ccccc1-c1ccccc1-n1cc(O)c(=O)c(C(=O)O)n1 [Compound 34]
**Result** 6.00 to 7.00

**Query** Give its pIC50 value. Item: O=C(O)c1nn(-c2ccccc2-c2ccc(C(F)(F)F)cc2)cc(O)c1=O [Compound 307]
**Result** 6.00 to 7.00

**Query** Give the measured pIC50 of CNC(=O)c1nn(-c2ccccc2S(=O)(=O)c2cccc(Cl)c2)cc(O)c1=O [Compound 644] .
**Result** 6.00 to 7.00

----------
As a worked illustration, we turn to IC50 data collected for EN PA (Influenza A virus).

| Compound | IC50 |
| --- | --- |
| Cc1cn(C2(Cn3cc(O)c(=O)c(C(=O)NCCCO)n3)CCCC2)c2ncccc12 | < 100 nM |

**Query** State its IC50 on EN PA (Influenza A virus): O=C(O)c1nn(-c2ccccc2C2CCCCC2)cc(O)c1=O
**Result** 100 to 1000 nM

**Query** Entry O=C(O)c1nn(CCc2cccc3ccccc23)cc(O)c1=O , system EN PA (Influenza A virus): what IC50 was measured?
**Result** 100 to 1000 nM

----------
In what follows, each item is paired with its pIC50 for EN PA (Influenza A virus, UniProt P15659).
pIC50: −log10 of the molar value.

Worked examples follow.
| Compound | Endpoint Result |
| --- | --- |
| O=C(NC1CC1)c1nn(CC2(c3ccccc3)CCCC2)cc(O)c1=O | > 7.00 |
| O=C(O)c1nn(CCC2CCCCC2)cc(O)c1=O | 6.00 to 7.00 |
| CNC(=O)c1nn(CC2(n3cc(Cl)c4cc(Cl)cnc43)CCCC2)cc(O)c1=O | > 7.00 |

**Query** Could you share which pIC50 value was measured for C=Cc1ccc(C2(Cn3cc(O)c(=O)c(C(=O)NC)n3)CCCC2)cc1 ?
**Result** > 7.00

**Query** So what's the measured pIC50 for this one? CNC(=O)c1nn(CC2(n3cc(C)c4cccnc43)CCCC2)cc(OC(=O)OC(C)(C)C)c1=O
**Result** > 7.00

**Query** What value of pIC50 has been reported for the following compound? CNC(=O)c1nn(CC2(n3cc(C(F)(F)F)c4cccnc43)CCCC2)cc(OC(=O)C(C)(C)C)c1=O
**Result** > 7.00

----------
Biological target: EN PA (Influenza A virus, UniProt P15659)
pIC50: −log10 of the molar value.
Measured Quantity: pIC50

**Query** Param readout= pIC50; system= EN PA (Influenza A virus, UniProt P15659); entry= CNC(=O)c1nn(-c2ccccc2-c2ccccc2OCC(C)C)cc(O)c1=O [Compound 630] ; returns value.
**Result** 6.00 to 7.00

**Query** # query: pIC50 | item CN1CCN(c2ccccc2-n2cc(O)c(=O)c(C(=O)O)n2)CC1 [Compound 204] | system: EN PA (Influenza A virus, UniProt P15659)
**Result** ≤ 6.00

**Query** For EN PA (Influenza A virus, UniProt P15659), provide pIC50 of O=C(NCc1cncnc1)c1nn(CC2(c3ccccc3)CCCC2)cc(O)c1=O [Compound 693] please.
**Result** > 7.00

**Query** Given the entry CCc1ccc(C2(Cn3cc(O)c(=O)c(C(=O)NC)n3)CCCC2)cc1 [Compound 747] , what pIC50 was observed with EN PA (Influenza A virus, UniProt P15659)?
**Result** > 7.00

**Query** Form: Entry = COc1cccc(-c2ccccc2-n2cc(O)c(=O)c(C(=O)O)n2)c1 [Compound 318] | System = EN PA (Influenza A virus, UniProt P15659) | pIC50 = ____
**Result** 6.00 to 7.00

**Query** Lab note: need pIC50 with EN PA (Influenza A virus, UniProt P15659) for entry Cc1cn(C2(Cn3cc(O)c(=O)c(C(=O)N4CCOCC4)n3)CCCC2)c2ncccc12 [Compound 877] , please look it up.
**Result** 6.00 to 7.00

**Query** Give EN PA (Influenza A virus, UniProt P15659) pIC50 for CNC(=O)c1nn(CC2(n3ccc4ccc(Cl)cc43)CCCC2)cc(O)c1=O [Compound 860]
**Result** > 7.00

**Query** Look up pIC50 with EN PA (Influenza A virus, UniProt P15659) for this molecule: CNC(=O)c1nn(CCN2c3ccccc3CCc3ccccc32)cc(O)c1=O [Compound 840]
**Result** 6.00 to 7.00

**Query** EN PA (Influenza A virus, UniProt P15659) / pIC50 / CC1(C)CCN(c2ccccc2-n2cc(O)c(=O)c(C(=O)O)n2)CC1 [Compound 206] : value?
**Result** 6.00 to 7.00

**Query** So what pIC50 did Cc1c(O)c(=O)c(C(=O)O)nn1CCc1ccccc1 [Compound 782] get with EN PA (Influenza A virus, UniProt P15659)?
**Result** > 7.00

**Query** Tell me reported pIC50 for O=C(O)c1nn(CC2(c3cccc(Br)c3)CCCC2)cc(O)c1=O [Compound 683] , tested with EN PA (Influenza A virus, UniProt P15659).
**Result** > 7.00

**Query** Kindly state the measured pIC50 obtained for CC(C)(C)OC(=O)n1cc(CCn2cc(O)c(=O)c(C(=O)O)n2)c2ccccc21 [Compound 404] with EN PA (Influenza A virus, UniProt P15659).
**Result** > 7.00

**Query** What measured pIC50 is associated with CNC(=O)c1nn(CC2(c3cc(C)cc4ncccc34)CCCC2)cc(O)c1=O [Compound 889] on EN PA (Influenza A virus, UniProt P15659)?
**Result** > 7.00

**Query** # query: pIC50 | item O=C(NCc1ccc(F)c(Cl)c1)c1nn(CC2(c3ccc(Cl)cc3)CCCC2)cc(O)c1=O [Compound 803] | system: EN PA (Influenza A virus, UniProt P15659)
**Result** > 7.00

**Query** Record CNC(=O)c1nn(CC2(c3cc(Cl)cc(C(F)(F)F)c3)CCCC2)cc(O)c1=O [Compound 768] : what is its pIC50 with EN PA (Influenza A virus, UniProt P15659)?
**Result** > 7.00

**Query** Lookup: pIC50 / EN PA (Influenza A virus, UniProt P15659) / CNC(=O)c1nn(-c2ccccc2-c2cccc(OC)c2)cc(O)c1=O [Compound 611]
**Result** ≤ 6.00

**Query** Give pIC50 (EN PA (Influenza A virus, UniProt P15659)) of the following molecule: Cc1cccc(-c2ccccc2-n2cc(O)c(=O)c(C(=O)O)n2)c1C [Compound 309]
**Result** ≤ 6.00

**Query** What value of pIC50 on EN PA (Influenza A virus, UniProt P15659) does C=Cc1cccc(C2(Cn3cc(O)c(=O)c(C(=O)NC)n3)CCCC2)c1 [Compound 738] have?
**Result** > 7.00

**Query** Entry O=C(O)c1nn(-c2ccc3c(c2)CCC3)cc(O)c1=O [Compound 10] , system EN PA (Influenza A virus, UniProt P15659): what pIC50 was measured?
**Result** 6.00 to 7.00

**Query** Form entry - test system: EN PA (Influenza A virus, UniProt P15659); read-out: pIC50; molecule: CNC(=O)c1nn(CC(c2ccccc2)C2CCCC2)cc(O)c1=O (centres unmarked) [Compound 658]
**Result** 6.00 to 7.00

**Query** Recall the recorded pIC50 for O=C(O)c1nn(-c2ccccc2-c2ccc3[nH]ccc3c2)cc(O)c1=O [Compound 320] with EN PA (Influenza A virus, UniProt P15659) and state it.
**Result** 6.00 to 7.00

**Query** Give the reported pIC50 for O=C(NCc1ccc(F)c(Cl)c1)c1nn(CC2(c3ccccc3)CCCC2)cc(O)c1=O [Compound 709] (system: EN PA (Influenza A virus, UniProt P15659)).
**Result** > 7.00

**Query** Item CNC(=O)c1nn(CC2(n3nc(C)c4ccccc43)CCCC2)cc(O)c1=O [Compound 824] with EN PA (Influenza A virus, UniProt P15659) - pIC50?
**Result** 6.00 to 7.00

**Query** Can you look up pIC50 on EN PA (Influenza A virus, UniProt P15659) for O=C(O)c1nn(-c2ccccc2N2CCCC2)cc(O)c1=O [Compound 200] ?
**Result** 6.00 to 7.00

**Query** # get_value(readout= pIC50, system= EN PA (Influenza A virus, UniProt P15659)) for CNC(=O)c1nn(CCc2cccc(C(F)(F)F)c2)cc(O)c1=O [Compound 608]
**Result** ≤ 6.00

**Query** Given the entry CNC(=O)c1nn(CC2(c3cc(F)cc(C(F)(F)F)c3)CCCC2)cc(O)c1=O [Compound 800] , what pIC50 was observed with EN PA (Influenza A virus, UniProt P15659)?
**Result** > 7.00

**Query** So what pIC50 did CC(C)(C)c1ccc(-c2ccccc2-n2cc(O)c(=O)c(C(=O)O)n2)cc1 [Compound 302] get with EN PA (Influenza A virus, UniProt P15659)?
**Result** 6.00 to 7.00

Data provenance is patent US10364226B2.
